# target_of_assay: Catalytic domains of human DNMT 3a/3L enzyme (Homo sapiens, UniProt Q9Y6K1)
# Construct: Catalytic domains of human DNMT 3a/3L enzyme were produced by Accelagen
# Sequence (Q9Y6K1 634-912 limits assumed): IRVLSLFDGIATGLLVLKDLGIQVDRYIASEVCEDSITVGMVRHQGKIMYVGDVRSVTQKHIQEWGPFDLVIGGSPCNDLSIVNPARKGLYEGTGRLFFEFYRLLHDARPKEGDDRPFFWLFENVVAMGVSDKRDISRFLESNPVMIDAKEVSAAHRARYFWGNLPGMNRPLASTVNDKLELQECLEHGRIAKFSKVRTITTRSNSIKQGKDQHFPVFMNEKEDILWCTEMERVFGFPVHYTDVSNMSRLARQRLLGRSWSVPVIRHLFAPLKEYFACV
# Sequence (Q9UJW3 178-386 partner limits assumed): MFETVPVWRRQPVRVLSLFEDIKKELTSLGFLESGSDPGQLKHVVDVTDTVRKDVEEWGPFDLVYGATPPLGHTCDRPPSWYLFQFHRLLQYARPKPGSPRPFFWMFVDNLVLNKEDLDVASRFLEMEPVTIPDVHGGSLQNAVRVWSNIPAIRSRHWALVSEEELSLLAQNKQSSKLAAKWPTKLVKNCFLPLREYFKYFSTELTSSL
# assay_overview: DNMT inhibition assay (3H-SAM filter plate scintillation), DNMT 3a/3L
# applied_conditions: Poly(dIdC) DNA 0.002 mg/mL, H3 SAM 500 nM, 30 min pre-incubation without SAM, 37° C. 1 h; read-out: DNMT 3a/3I IC50
readout_label: pIC50
When answering, recall that pIC50 equals minus log10 of the concentration in mol/L, and write that number alone.

Below, 3 compounds whose answers are already recorded.
[[record]]
structure = "Nc1ncnc2c1ncn2[C@H]1O[C@@H](CSCCNc2ccnc(Cl)n2)[C@H](O)[C@@H]1O"
meas_value = 4.02

[[record]]
structure = "Nc1ncnc2c1ncn2[C@H]1O[C@@H](CSCCNc2cc(Cl)ncn2)[C@H](O)[C@@H]1O"
meas_value = 4.22

[[record]]
structure = "C=CC(=O)NCCSC[C@@H]1O[C@H](n2cnc3c(N)ncnc32)[C@@H](O)[C@H]1O"
meas_value = 4.62


Entry Nc1ncnc2c1ncn2[C@H]1O[C@@H](CSCCNc2ccncn2)[C@H](O)[C@@H]1O , pIC50 reported as 4.59

Summary for this compound, Nc1ncnc2c1ncn2[C@H]1O[C@@H](CSCCNc2nccc(Cl)n2)[C@H](O)[C@@H]1O : pIC50 is 5.52

* * *

# target_of_assay: Human full-length DNMT1 enzyme (Homo sapiens)
# Sequence (P26358 whole entry): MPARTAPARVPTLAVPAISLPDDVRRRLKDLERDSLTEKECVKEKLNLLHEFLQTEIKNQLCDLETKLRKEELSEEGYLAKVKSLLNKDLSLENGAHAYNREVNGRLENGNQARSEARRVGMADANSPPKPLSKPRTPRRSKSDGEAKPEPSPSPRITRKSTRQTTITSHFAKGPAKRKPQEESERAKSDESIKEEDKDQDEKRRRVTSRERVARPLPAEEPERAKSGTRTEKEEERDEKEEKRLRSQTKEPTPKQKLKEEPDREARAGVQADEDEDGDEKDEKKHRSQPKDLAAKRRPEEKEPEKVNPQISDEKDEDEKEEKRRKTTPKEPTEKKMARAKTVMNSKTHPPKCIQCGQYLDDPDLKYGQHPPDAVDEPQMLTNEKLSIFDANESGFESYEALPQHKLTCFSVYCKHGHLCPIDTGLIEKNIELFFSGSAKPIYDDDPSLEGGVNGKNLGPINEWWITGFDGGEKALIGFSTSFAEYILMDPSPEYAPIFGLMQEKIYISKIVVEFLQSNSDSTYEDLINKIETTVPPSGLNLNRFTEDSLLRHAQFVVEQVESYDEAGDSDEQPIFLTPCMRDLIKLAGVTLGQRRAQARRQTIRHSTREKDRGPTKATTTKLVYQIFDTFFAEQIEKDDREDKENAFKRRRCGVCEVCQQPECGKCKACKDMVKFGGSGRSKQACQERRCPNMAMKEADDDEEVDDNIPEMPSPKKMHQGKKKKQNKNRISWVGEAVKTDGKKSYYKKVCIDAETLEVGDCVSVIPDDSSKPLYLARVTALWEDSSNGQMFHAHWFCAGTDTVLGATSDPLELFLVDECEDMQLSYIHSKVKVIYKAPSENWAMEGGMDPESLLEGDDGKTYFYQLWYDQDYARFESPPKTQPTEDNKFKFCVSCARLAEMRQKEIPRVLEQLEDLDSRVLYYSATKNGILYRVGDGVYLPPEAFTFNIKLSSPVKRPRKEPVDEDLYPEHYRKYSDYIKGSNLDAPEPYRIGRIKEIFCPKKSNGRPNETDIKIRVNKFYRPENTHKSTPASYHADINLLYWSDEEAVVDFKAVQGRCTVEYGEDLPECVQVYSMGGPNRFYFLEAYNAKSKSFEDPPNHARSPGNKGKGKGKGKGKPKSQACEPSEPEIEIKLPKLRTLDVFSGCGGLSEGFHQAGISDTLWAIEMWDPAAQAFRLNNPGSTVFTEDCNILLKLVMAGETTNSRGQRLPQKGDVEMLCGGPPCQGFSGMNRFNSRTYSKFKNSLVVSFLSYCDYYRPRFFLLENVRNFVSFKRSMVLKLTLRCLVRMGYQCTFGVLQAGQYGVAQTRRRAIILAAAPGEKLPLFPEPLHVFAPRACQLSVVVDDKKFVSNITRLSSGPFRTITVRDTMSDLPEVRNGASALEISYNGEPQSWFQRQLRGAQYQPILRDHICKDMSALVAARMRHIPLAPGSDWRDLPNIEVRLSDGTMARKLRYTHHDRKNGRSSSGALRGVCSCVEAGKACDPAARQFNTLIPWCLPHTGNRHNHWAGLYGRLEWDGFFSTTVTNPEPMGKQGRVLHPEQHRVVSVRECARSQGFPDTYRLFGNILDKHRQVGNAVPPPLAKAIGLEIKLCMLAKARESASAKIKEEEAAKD
readout_label: IC50 (µM)
Number in µM, nothing else.

Form: compound = C=CC(=O)NCCSC[C@@H]1O[C@H](n2cnc3c(N)ncnc32)[C@@H](O)[C@H]1O [Example 5] ; IC50 = 49
